# reported viability, T/C; entries follow
system: 695427-040-R-J1-PDC complex spheroids, viability percent T/C; test: Anticancer human tumor 695427-040-R-J1-PDC patient-derived colon adenocarcinoma cell line growth inhibition [GQUAD]; conditions: second compound 0.316 µM; first compound 10 µM; hits give low values

molecule	readingUnit	viability, T/C
C#Cc1c(F)ccc2cc(O)cc(-c3ncc4c(N5CC6CCC(C5)N6)nc(OCC56CCCN5CC(F)C6)nc4c3F)c12 (stereo unspecified) + CN(C)c1ccc(Nc2c3ccc(NC(=O)CCN4CCCC4)cc3nc3cc(NC(=O)CCN4CCCC4)ccc23)cc1	%	80.6
C=CC(=O)N1CCN(c2nc(=O)n(-c3c(C)ccnc3C(C)C)c3nc(-c4c(O)cccc4F)c(F)cc23)C(C)C1 (stereo unspecified) + CN(C)c1ccc(Nc2c3ccc(NC(=O)CCN4CCCC4)cc3nc3cc(NC(=O)CCN4CCCC4)ccc23)cc1	%	108
COc1ccc([C@@H](O)c2cc(-c3ncnc4cc(N5CCOCC5)ccc34)c(F)cc2Cl)nn1 + Cc1[nH]c2ccc(F)cc2c1-c1nc2c3cccnc3c3ncccc3c2[nH]1	%	51.2
O=C(c1cc(Cc2n[nH]c(=O)c3ccccc23)ccc1F)N1CCN(C(=O)C2CC2)CC1 + CN(C)c1ccc(Nc2c3ccc(NC(=O)CCN4CCCC4)cc3nc3cc(NC(=O)CCN4CCCC4)ccc23)cc1	%	97.2
COc1ncnc(C2CC2)c1-c1ncc2cnn(Cc3ccc(-c4nc(C(F)(F)F)cn4C(C)C)cc3)c2n1 + Cc1[nH]c2ccc(F)cc2c1-c1nc2c3cccnc3c3ncccc3c2[nH]1	%	65.6
Nc1ccn(C2OC(CO)C(O)C2(F)F)c(=O)n1 (stereo unspecified) + Cc1cnc(CNC(=O)c2c(=O)c3ccc(N4CCCN(C)CC4)nc3n3c2sc2ccccc23)cn1	%	53.5
COc1cccc2c1C(=O)c1c(O)c3c(c(O)c1C2=O)CC(O)(C(=O)CO)CC3OC1CC(N)C(O)C(C)O1 (stereo unspecified) + Cc1[nH]c2ccc(F)cc2c1-c1nc2c3cccnc3c3ncccc3c2[nH]1	%	49.6
CC(C)(O)C1CCC(Nc2ccc3ncc(-c4cccc(C(F)(F)F)c4)n3n2)CC1 (stereo unspecified) + Cc1[nH]c2ccc(F)cc2c1-c1nc2c3cccnc3c3ncccc3c2[nH]1	%	80.1
C=CC(=O)N1CCN(c2nc(=O)n(-c3c(C)ccnc3C(C)C)c3nc(-c4c(O)cccc4F)c(F)cc23)C(C)C1 (stereo unspecified) + Cc1cnc(CNC(=O)c2c(=O)c3ccc(N4CCCN(C)CC4)nc3n3c2sc2ccccc23)cn1	%	83.8
CC(=O)O[C@H]1C(=O)[C@@]2(C)[C@H]([C@H](OC(=O)c3ccccc3)[C@]3(O)C[C@H](OC(=O)[C@H](O)[C@@H](NC(=O)c4ccccc4)c4ccccc4)C(C)=C1C3(C)C)[C@]1(OC(C)=O)CO[C@@H]1C[C@@H]2O + Cc1cnc(CNC(=O)c2c(=O)c3ccc(N4CCCN(C)CC4)nc3n3c2sc2ccccc23)cn1	%	71.3
CC(C)(O)C1CCC(Nc2ccc3ncc(-c4cccc(C(F)(F)F)c4)n3n2)CC1 (stereo unspecified) + Cc1cnc(CNC(=O)c2c(=O)c3ccc(N4CCCN(C)CC4)nc3n3c2sc2ccccc23)cn1	%	11.4

====

# reported viability, T/C; entries follow
Tested on: 695427-040-R-J1-PDC complex spheroids, viability percent T/C
Experiment: Anticancer human tumor 695427-040-R-J1-PDC cell line growth inhibition [GQUAD];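 note: spheroids exposed to compounds for seven days before readout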
Settings: second compound 0.1 µM; first compound 0.316 µM; hits give low values
Source text: DNA G-quadruplex Stabilizer Agents in Combinations in Complex Spheroids A high-throughput screen of multi-cell type tumor spheroids was designed to identify active combinations of DNA G-quadruplex stabilizer agents and targeted small molecules. […] Compounds. […] If the clinical Cmax for an agent had not been determined, the highest concentration tested was 10 microM. […]

compound	viability, T/C, %
CC(C)(O)C1CCC(Nc2ccc3ncc(-c4cccc(C(F)(F)F)c4)n3n2)CC1 (stereo not given) + Cc1[nH]c2ccc(F)cc2c1-c1nc2c3cccnc3c3ncccc3c2[nH]1	103
COc1cccc2c1C(=O)c1c(O)c3c(c(O)c1C2=O)CC(O)(C(=O)CO)CC3OC1CC(N)C(O)C(C)O1 (stereo not given) + CN(C)c1ccc(Nc2c3ccc(NC(=O)CCN4CCCC4)cc3nc3cc(NC(=O)CCN4CCCC4)ccc23)cc1	85.9
O=C(c1cc(Cc2n[nH]c(=O)c3ccccc23)ccc1F)N1CCN(C(=O)C2CC2)CC1 + Cc1[nH]c2ccc(F)cc2c1-c1nc2c3cccnc3c3ncccc3c2[nH]1	97.7
CC(=O)O[C@H]1C(=O)[C@@]2(C)[C@H]([C@H](OC(=O)c3ccccc3)[C@]3(O)C[C@H](OC(=O)[C@H](O)[C@@H](NC(=O)c4ccccc4)c4ccccc4)C(C)=C1C3(C)C)[C@]1(OC(C)=O)CO[C@@H]1C[C@@H]2O + Cc1[nH]c2ccc(F)cc2c1-c1nc2c3cccnc3c3ncccc3c2[nH]1	73.2
C#Cc1c(F)ccc2cc(O)cc(-c3ncc4c(N5CC6CCC(C5)N6)nc(OCC56CCCN5CC(F)C6)nc4c3F)c12 (stereo not given) + Cc1[nH]c2ccc(F)cc2c1-c1nc2c3cccnc3c3ncccc3c2[nH]1	93.7
CC1COCCN1c1cc(-c2ccnn2C)c2ccnc(-c3ccn[nH]3)c2n1 (stereo not given) + CN(C)c1ccc(Nc2c3ccc(NC(=O)CCN4CCCC4)cc3nc3cc(NC(=O)CCN4CCCC4)ccc23)cc1	63.9
Nc1ccn(C2OC(CO)C(O)C2(F)F)c(=O)n1 (stereo not given) + CN(C)c1ccc(Nc2c3ccc(NC(=O)CCN4CCCC4)cc3nc3cc(NC(=O)CCN4CCCC4)ccc23)cc1	78.3
C#Cc1c(F)ccc2cc(O)cc(-c3ncc4c(N5CC6CCC(C5)N6)nc(OCC56CCCN5CC(F)C6)nc4c3F)c12 (stereo not given) + Cc1cnc(CNC(=O)c2c(=O)c3ccc(N4CCCN(C)CC4)nc3n3c2sc2ccccc23)cn1	85
C=CC(=O)N1CCN(c2nc(=O)n(-c3c(C)ccnc3C(C)C)c3nc(-c4c(O)cccc4F)c(F)cc23)C(C)C1 (stereo not given) + Cc1cnc(CNC(=O)c2c(=O)c3ccc(N4CCCN(C)CC4)nc3n3c2sc2ccccc23)cn1	82.3
COc1cccc2c1C(=O)c1c(O)c3c(c(O)c1C2=O)CC(O)(C(=O)CO)CC3OC1CC(N)C(O)C(C)O1 (stereo not given) + Cc1cnc(CNC(=O)c2c(=O)c3ccc(N4CCCN(C)CC4)nc3n3c2sc2ccccc23)cn1	85.3

====

system: 695427-040-R-J1-PDC complex spheroids, viability percent T/C; assay: Anticancer human tumor 695427-040-R-J1-PDC cell line growth inhibition [GQUAD]; conditions: second compound 3.16 µM; first compound 0.00316 µM; hits give low values;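 note: spheroids exposed to compounds for seven days before readout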
The label MET is reserved for viability, T/C strictly under 50%; NOT MET covers values equal to or above it.

compound	labelValue
CCc1c2c(nc3ccc(O)cc13)-c1cc3c(c(=O)n1C2)COC(=O)[C@]3(O)CC + Cc1cnc(CNC(=O)c2c(=O)c3ccc(N4CCCN(C)CC4)nc3n3c2sc2ccccc23)cn1	MET
Cc1[nH]c2ccccc2c1CCNCc1ccc(/C=C/C(=O)NO)cc1 + Cc1[nH]c2ccc(F)cc2c1-c1nc2c3cccnc3c3ncccc3c2[nH]1	NOT MET
Cn1ncnc1[C@H]1c2n[nH]c(=O)c3cc(F)cc(c23)N[C@@H]1c1ccc(F)cc1 + CN(C)c1ccc(Nc2c3ccc(NC(=O)CCN4CCCC4)cc3nc3cc(NC(=O)CCN4CCCC4)ccc23)cc1	NOT MET
Cc1[nH]c2ccccc2c1CCNCc1ccc(/C=C/C(=O)NO)cc1 + CN(C)c1ccc(Nc2c3ccc(NC(=O)CCN4CCCC4)cc3nc3cc(NC(=O)CCN4CCCC4)ccc23)cc1	NOT MET

====

Test system: 695427-040-R-J1-PDC complex spheroids, viability percent T/C
Assay: Anticancer human tumor 695427-040-R-J1-PDC cell line growth inhibition [GQUAD];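 note: spheroids exposed to compounds for seven days before readout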
Conditions: second compound 0.1 µM; first compound 0.316 µM; hits give low values
From the text: DNA G-quadruplex Stabilizer Agents in Combinations in Complex Spheroids A high-throughput screen of multi-cell type tumor spheroids was designed to identify active combinations of DNA G-quadruplex stabilizer agents and targeted small molecules. […] Compounds. […] If the clinical Cmax for an agent had not been determined, the highest concentration tested was 10 microM. […]
readoutType: viability, T/C (%)

compound	tgt	readoutType	numericValue
CC1COCCN1c1cc(C2(S(C)(=N)=O)CC2)nc(-c2ccnc3[nH]ccc23)n1 (centres undefined) + Cc1cnc(CNC(=O)c2c(=O)c3ccc(N4CCCN(C)CC4)nc3n3c2sc2ccccc23)cn1	695427-040-R-J1-PDC complex spheroids, viability percent T/C	viability, T/C	89.3
Cc1[nH]c2ccccc2c1CCNCc1ccc(/C=C/C(=O)NO)cc1 + Cc1[nH]c2ccc(F)cc2c1-c1nc2c3cccnc3c3ncccc3c2[nH]1	695427-040-R-J1-PDC complex spheroids, viability percent T/C	viability, T/C	88.6
O=c1[nH]cc(F)c(=O)[nH]1 + Cc1[nH]c2ccc(F)cc2c1-c1nc2c3cccnc3c3ncccc3c2[nH]1	695427-040-R-J1-PDC complex spheroids, viability percent T/C	viability, T/C	92.2
COc1ccc([C@@H](O)c2cc(-c3ncnc4cc(N5CCOCC5)ccc34)c(F)cc2Cl)nn1 + CN(C)c1ccc(Nc2c3ccc(NC(=O)CCN4CCCC4)cc3nc3cc(NC(=O)CCN4CCCC4)ccc23)cc1	695427-040-R-J1-PDC complex spheroids, viability percent T/C	viability, T/C	89.4
CC(C)n1c(=O)n(C)c2cnc3cc(F)c(-c4ccc(OCCCN5CCCCC5)nc4)cc3c21 + Cc1[nH]c2ccc(F)cc2c1-c1nc2c3cccnc3c3ncccc3c2[nH]1	695427-040-R-J1-PDC complex spheroids, viability percent T/C	viability, T/C	128
COc1cc(C2c3cc4c(cc3C(OC3OC5COC(C)OC5C(O)C3O)C3COC(=O)C23)OCO4)cc(OC)c1O (centres undefined) + Cc1cnc(CNC(=O)c2c(=O)c3ccc(N4CCCN(C)CC4)nc3n3c2sc2ccccc23)cn1	695427-040-R-J1-PDC complex spheroids, viability percent T/C	viability, T/C	70.3
O=C(NO)c1cnc(N2CCN(S(=O)(=O)c3ccc4ccccc4c3)CC2)nc1 + CN(C)c1ccc(Nc2c3ccc(NC(=O)CCN4CCCC4)cc3nc3cc(NC(=O)CCN4CCCC4)ccc23)cc1	695427-040-R-J1-PDC complex spheroids, viability percent T/C	viability, T/C	72.4
CCc1c2c(nc3ccc(O)cc13)-c1cc3c(c(=O)n1C2)COC(=O)[C@]3(O)CC + Cc1cnc(CNC(=O)c2c(=O)c3ccc(N4CCCN(C)CC4)nc3n3c2sc2ccccc23)cn1	695427-040-R-J1-PDC complex spheroids, viability percent T/C	viability, T/C	33.8
CC(=O)O[C@H]1C(=O)[C@@]2(C)[C@H]([C@H](OC(=O)c3ccccc3)[C@]3(O)C[C@H](OC(=O)[C@H](O)[C@@H](NC(=O)c4ccccc4)c4ccccc4)C(C)=C1C3(C)C)[C@]1(OC(C)=O)CO[C@@H]1C[C@@H]2O + CN(C)c1ccc(Nc2c3ccc(NC(=O)CCN4CCCC4)cc3nc3cc(NC(=O)CCN4CCCC4)ccc23)cc1	695427-040-R-J1-PDC complex spheroids, viability percent T/C	viability, T/C	89.3
C=CCn1c(=O)c2cnc(Nc3ccc(N4CCN(C)CC4)cc3)nc2n1-c1cccc(C(C)(C)O)n1 + Cc1cnc(CNC(=O)c2c(=O)c3ccc(N4CCCN(C)CC4)nc3n3c2sc2ccccc23)cn1	695427-040-R-J1-PDC complex spheroids, viability percent T/C	viability, T/C	65.2
Cc1cccc(N(C)C(=O)C2C(O)CCN2c2nc(C)cc(C(F)(F)F)c2C#N)c1 (centres undefined) + Cc1[nH]c2ccc(F)cc2c1-c1nc2c3cccnc3c3ncccc3c2[nH]1	695427-040-R-J1-PDC complex spheroids, viability percent T/C	viability, T/C	107
CCCS(=O)(=O)Nc1ccc(F)c(C(=O)c2c[nH]c3ncc(-c4ccc(Cl)cc4)cc23)c1F + Cc1[nH]c2ccc(F)cc2c1-c1nc2c3cccnc3c3ncccc3c2[nH]1	695427-040-R-J1-PDC complex spheroids, viability percent T/C	viability, T/C	86
CCCS(=O)(=O)Nc1ccc(F)c(C(=O)c2c[nH]c3ncc(-c4ccc(Cl)cc4)cc23)c1F + CN(C)c1ccc(Nc2c3ccc(NC(=O)CCN4CCCC4)cc3nc3cc(NC(=O)CCN4CCCC4)ccc23)cc1	695427-040-R-J1-PDC complex spheroids, viability percent T/C	viability, T/C	104
COc1ccc([C@@H](O)c2cc(-c3ncnc4cc(N5CCOCC5)ccc34)c(F)cc2Cl)nn1 + Cc1cnc(CNC(=O)c2c(=O)c3ccc(N4CCCN(C)CC4)nc3n3c2sc2ccccc23)cn1	695427-040-R-J1-PDC complex spheroids, viability percent T/C	viability, T/C	80.5
